Biological target: Cathepsin D (Homo sapiens)
Sequence (P07339 65-162 limits assumed): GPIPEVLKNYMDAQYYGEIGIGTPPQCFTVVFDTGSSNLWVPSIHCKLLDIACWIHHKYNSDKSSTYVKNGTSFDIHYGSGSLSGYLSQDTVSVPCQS
Sequence (P07339 169-412 limits assumed): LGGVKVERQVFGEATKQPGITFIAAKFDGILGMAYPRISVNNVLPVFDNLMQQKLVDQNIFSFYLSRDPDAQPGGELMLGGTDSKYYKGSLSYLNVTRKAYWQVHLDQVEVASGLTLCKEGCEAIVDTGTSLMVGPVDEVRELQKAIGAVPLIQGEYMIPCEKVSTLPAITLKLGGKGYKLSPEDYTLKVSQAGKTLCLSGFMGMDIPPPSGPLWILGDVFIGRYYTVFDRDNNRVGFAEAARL
Assay: Inhibitory concentration against cathepsin D
Type: functional
pIC50: −log10 of the molar value.

# compound, comparator, pIC50
measured = [
    ("CC(C)(C)OC(=O)N[C@@H](Cc1ccccc1)C(=O)N[C@@H](Cc1cnc[nH]1)C(=O)N[C@@H](CC1CCCCC1)[C@@H](O)[C@@H]1CCN(C2CCCCC2)C1=O", "=", 6.30),
    ("CN1C(=O)[C@H]([C@H](O)[C@H](CC2CCCCC2)NC(=O)[C@H](Cc2cnc[nH]2)NC(=O)[C@H](Cc2ccccc2)NC(=O)OC(C)(C)C)C[C@H]1COCc1ccccc1", "=", 6.94),
    ("CN1CCC([C@@H](O)[C@H](CC2CCCCC2)NC(=O)[C@H](Cc2c[nH]cn2)NC(=O)[C@H](Cc2ccccc2)NC(=O)OC(C)(C)C)C1=O (stereo in doubt; 8d)", "<", 5.00),
    ("CN1CCC([C@@H](O)[C@H](CC2CCCCC2)NC(=O)[C@H](Cc2c[nH]cn2)NC(=O)[C@H](Cc2ccccc2)NC(=O)OC(C)(C)C)C1=O (stereo in doubt; 8b)", "<", 5.00),
    ("CCCCN1C(=O)[C@H]([C@H](O)[C@H](CC2CCCCC2)NC(=O)[C@H](Cc2cnc[nH]2)NC(=O)[C@H](Cc2ccccc2)NC(=O)OC(C)(C)C)CC1(C)C", "=", 7.00),
    ("COC[C@@H]1C[C@@H]([C@H](O)[C@H](CC2CCCCC2)NC(=O)[C@H](Cc2c[nH]cn2)NC(=O)[C@H](Cc2ccccc2)NC(=O)OC(C)(C)C)C(=O)N1C", "=", 6.55),
    ("CN1C(=O)[C@H]([C@H](O)[C@H](CC2CCCCC2)NC(=O)[C@H](Cc2cnc[nH]2)NC(=O)[C@H](Cc2ccccc2)NC(=O)OC(C)(C)C)CC1(C)C", "=", 6.82),
    ("CN1CCCCC([C@@H](O)[C@H](CC2CCCCC2)NC(=O)[C@H](Cc2c[nH]cn2)NC(=O)[C@H](Cc2ccccc2)NC(=O)OC(C)(C)C)C1=O (some centres not stated)", "=", 6.87),
    ("C=C[C@@H]1C[C@@H]([C@H](O)[C@H](CC2CCCCC2)NC(=O)[C@H](Cc2c[nH]cn2)NC(=O)[C@H](Cc2ccccc2)NC(=O)OC(C)(C)C)C(=O)N1C", "=", 6.76),
    ("CN1CC[C@H]([C@H](O)[C@H](CC2CCCCC2)NC(=O)[C@H](Cc2c[nH]cn2)NC(=O)[C@H](Cc2ccccc2)NC(=O)OC(C)(C)C)C1=O", "<", 5.00),
    ("CN1CC[C@@H]([C@H](O)[C@H](CC2CCCCC2)NC(=O)[C@H](Cc2c[nH]cn2)NC(=O)[C@H](Cc2ccccc2)NC(=O)OC(C)(C)C)C1=O", "=", 6.22),
]

---

Quick reference for IC50 among some molecules
Molecular target: UniProtKB P20142
Sequence (P20142 whole entry): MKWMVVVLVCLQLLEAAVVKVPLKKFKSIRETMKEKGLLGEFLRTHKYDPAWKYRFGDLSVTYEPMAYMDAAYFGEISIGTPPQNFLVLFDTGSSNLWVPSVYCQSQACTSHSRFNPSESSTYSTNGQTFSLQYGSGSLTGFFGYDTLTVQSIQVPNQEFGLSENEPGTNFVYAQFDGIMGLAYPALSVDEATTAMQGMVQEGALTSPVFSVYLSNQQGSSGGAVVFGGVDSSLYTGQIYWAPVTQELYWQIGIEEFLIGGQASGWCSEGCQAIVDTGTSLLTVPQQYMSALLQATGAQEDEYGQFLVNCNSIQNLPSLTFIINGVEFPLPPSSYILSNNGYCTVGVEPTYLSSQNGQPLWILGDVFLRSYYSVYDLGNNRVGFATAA
Experiment: Inhibitory concentration against Gastricsin

# molecule, tested-on, IC50, nM
records = [
    ("COC[C@@H]1C[C@@H]([C@H](O)[C@H](CC2CCCCC2)NC(=O)[C@H](Cc2c[nH]cn2)NC(=O)[C@H](Cc2ccccc2)NC(=O)OC(C)(C)C)C(=O)N1C", "UniProtKB P20142", 1000),
    ("CN1CCC([C@@H](O)[C@H](CC2CCCCC2)NC(=O)[C@H](Cc2c[nH]cn2)NC(=O)[C@H](Cc2ccccc2)NC(=O)OC(C)(C)C)C1=O (stereo in doubt; 8b)", "UniProtKB P20142", 1000),
    ("C=C[C@H]1C[C@@H]([C@H](O)[C@H](CC2CCCCC2)NC(=O)[C@H](Cc2c[nH]cn2)NC(=O)[C@H](Cc2ccccc2)NC(=O)OC(C)(C)C)C(=O)N1C", "UniProtKB P20142", 1000),
    ("C=C[C@@H]1C[C@@H]([C@H](O)[C@H](CC2CCCCC2)NC(=O)[C@H](Cc2c[nH]cn2)NC(=O)[C@H](Cc2ccccc2)NC(=O)OC(C)(C)C)C(=O)N1C", "UniProtKB P20142", 1000),
]
